- testedOn: human liver GK (Homo sapiens)
- Construct: GST (glutathione S-transferase) (N)
- testDescription: GK activation test
- conditionContext: test compound concentration needed to activate 50% of maximum activation ability; 4 mM 14C-labeled glucose, 2 mM ATP, room temperature, 20 minutes
valueKind: EC50

// worked examples, EC50 included
Q) What value of EC50 on human liver GK (Homo sapiens) does O=C1CC[C@H](CC(c2ccc(OC3CC3)c(Cl)c2)c2ccc(C3CC3)c(=O)[nH]2)N1 (single isomer, unassigned) [Example 4-345] have?
A) 3 to 10 µM

Q) Value wanted: EC50 (human liver GK (Homo sapiens)) of entry O=C1CC[C@H](CC(c2ccc(C(F)F)c(Cl)c2)c2ccc(C3CC3)c(=O)[nH]2)N1 (single isomer, unassigned) [Example 4-225]
A) 0.01 to 0.5 µM

Lab note: next compound to report on.
Q) Can you look up EC50 on human liver GK (Homo sapiens) for CC(C)c1ccc(/C(=C/[C@H]2CCC(=O)N2)c2ccc(Cl)c(=O)[nH]2)cc1 [Example 4-82] ?
A) 3 to 10 µM

----------
Quick reference for pEC50 among some molecules
- testedOn: human liver GK (Homo sapiens)
- Construct: GST (glutathione S-transferase) (N)
- testDescription: GK activation test
- conditionContext: test compound concentration needed to activate 50% of maximum activation ability; 4 mM 14C-labeled glucose, 2 mM ATP, room temperature, 20 minutes
pEC50: −log10 of the molar value.

Consider the following illustrative entries.
Q) Which pEC50 reading was recorded for the molecule NC(=O)c1ccc(/C(=C\[C@H]2CCC(=O)N2)c2ccc(Cl)c(=O)[nH]2)cc1 ?
A) 5.00 to 5.52

Q) May I ask what pEC50 has been recorded for CC(C)c1ccc(C(C[C@H]2CCC(=O)N2)c2ccc(C3CC3)c(=O)[nH]2)cc1Cl (single isomer, unassigned) [Example 4-320] ?
A) 6.30 to 8.00

Q) Which value of pEC50 has been reported for CC(C)(C)c1ccc(C(CCN2CCOC2=O)c2ccc(Cl)c(=O)[nH]2)cc1 (single isomer, unassigned) in the records?
A) 5.52 to 6.30

Q) Fill in: pEC50 of CCc1ccc(/C(=C\[C@H]2CCC(=O)N2)c2ccc(C3CC3)c(=O)[nH]2)cc1Cl is ___
A) 6.30 to 8.00

Q) Fill blank: measured pEC50 of the molecule CCSc1ccc(/C(=C\[C@H]2CCC(=O)N2)c2ccc(Cl)c(=O)[nH]2)cc1Cl is ____.
A) 6.30 to 8.00

Continuing:
Q) Look up pEC50: CC(C)COc1ccc(/C(=C\[C@H]2CCC(=O)N2)c2ccc(Cl)c(=O)[nH]2)cc1Cl
A) 6.30 to 8.00

Q) What does the data say about its pEC50? Entry: CC(C)(C)c1ccc(/C(=C\CCO)c2ccc(Cl)c(=O)[nH]2)cc1
A) 5.00 to 5.52

----------
This listing pairs compounds with measured EC50.
- testedOn: human liver GK (Homo sapiens, UniProt P35557)
- Construct: GST (glutathione S-transferase) (N); made in house; host or cells: E. coli
- testDescription: GK activation test
- Format: biochemical
- conditionContext: test compound concentration needed to activate 50% of maximum activation ability; 4 mM 14C-labeled glucose, 2 mM ATP, room temperature, 20 minutes

Known results for compounds:
Q) Kindly state the measured EC50 obtained for CCc1ccc(/C(=C/C2CCCC2)c2ccc(SC)c(Cl)c2)[nH]c1=O with human liver GK (Homo sapiens, UniProt P35557).
A) 10 to 500 nM

Q) Form entry - test system: human liver GK (Homo sapiens, UniProt P35557); read-out: EC50; compound: O=C1CC[C@H](/C=C(\c2ccc(S(=O)(=O)N3CCCC3)cc2)c2ccc(C3CC3)c(=O)[nH]2)N1
A) 10 to 500 nM

Q) Hello, I am looking for reported EC50 with human liver GK (Homo sapiens, UniProt P35557) for COc1ccc(C(C[C@H]2CCC(=O)N2)c2ccc(C3CC3)c(=O)[nH]2)cc1Cl (single isomer, unassigned) [Example 4-326] . Could you help?
A) 10 to 500 nM

Q) Form entry - test system: human liver GK (Homo sapiens, UniProt P35557); read-out: EC50; compound: O=C1CC[C@H](CC(c2ccc(C3CC3)c(=O)[nH]2)c2ccc(C(F)(F)F)cc2F)N1 (single isomer, unassigned) [Example 4-332]
A) 500 to 3000 nM

Q) human liver GK (Homo sapiens, UniProt P35557) / EC50 / Cc1ccc(/C(=C\[C@H]2CCC(=O)N2)c2ccc(C3CC3)c(=O)[nH]2)c(Cl)c1 : value?
A) 500 to 3000 nM

Q) Which measured EC50 belongs to CCOc1ccc(/C(=C\C2CCCC2)c2ccc(CC)c(=O)[nH]2)cc1Cl , tested on human liver GK (Homo sapiens, UniProt P35557)?
A) 10 to 500 nM

Then there is this compound:
Q) # get_value(readout= EC50, system= human liver GK (Homo sapiens, UniProt P35557)) for C[C@@H](/C=C(\c1ccc(S(=O)(=O)C2CC2)cc1)c1ccc(C(F)(F)F)c(=O)[nH]1)CO
A) 3000 to 10000 nM

----------
Measured pEC50 by item
- testedOn: human liver GK (Homo sapiens, UniProt P35557)
- Construct: GST (glutathione S-transferase) (N)
- testDescription: GK activation test
- conditionContext: test compound concentration needed to activate 50% of maximum activation ability; 4 mM 14C-labeled glucose, 2 mM ATP, room temperature, 20 minutes
pEC50: −log10 of the molar value.

Example entries and their recorded answers appear below.
Q) Lookup: pEC50 / human liver GK (Homo sapiens, UniProt P35557) / CS(=O)(=O)c1ccc(/C(=C\[C@H]2CCC(=O)C2)c2ccc(C3CC3)c(=O)[nH]2)cc1 [Example 1-108]
A) 6.30 to 8.00

Q) # returns recorded pEC50 (system: human liver GK (Homo sapiens, UniProt P35557)) for CC(C)Oc1ccc(C(C[C@H]2CCC(=O)N2)c2ccc(C3CC3)c(=O)[nH]2)cc1F (single isomer, unassigned) [Example 4-350]
A) 6.30 to 8.00

Q) Look up pEC50 with human liver GK (Homo sapiens, UniProt P35557) for this molecule: CC(C)(C)c1ccc(C(C[C@H]2CCC(=O)N2)c2ccc(OC(F)F)c(=O)[nH]2)cc1 (single isomer, unassigned) [Example 4-247]
A) 5.00 to 5.52

---
Q) I'm curious: which pEC50 was measured for O=C1CC[C@H](/C=C(\c2ccc(C(F)(F)F)cc2)c2ccc(Cl)c(=O)[nH]2)N1 [Example 4-19] tested on human liver GK (Homo sapiens, UniProt P35557)?
A) 5.52 to 6.30

Q) Give the reported pEC50 for CCN(CC)CCCS(=O)(=O)c1ccc(/C(=C\C2CCCC2)c2ccc(C(F)(F)F)c(=O)[nH]2)cc1 [Example 1-41] (system: human liver GK (Homo sapiens, UniProt P35557)).
A) 5.52 to 6.30

----------
- testedOn: human liver GK (Homo sapiens)
- Construct: GST (glutathione S-transferase) (N)
- Sequence (P35557 1-466 isoform P35557-2): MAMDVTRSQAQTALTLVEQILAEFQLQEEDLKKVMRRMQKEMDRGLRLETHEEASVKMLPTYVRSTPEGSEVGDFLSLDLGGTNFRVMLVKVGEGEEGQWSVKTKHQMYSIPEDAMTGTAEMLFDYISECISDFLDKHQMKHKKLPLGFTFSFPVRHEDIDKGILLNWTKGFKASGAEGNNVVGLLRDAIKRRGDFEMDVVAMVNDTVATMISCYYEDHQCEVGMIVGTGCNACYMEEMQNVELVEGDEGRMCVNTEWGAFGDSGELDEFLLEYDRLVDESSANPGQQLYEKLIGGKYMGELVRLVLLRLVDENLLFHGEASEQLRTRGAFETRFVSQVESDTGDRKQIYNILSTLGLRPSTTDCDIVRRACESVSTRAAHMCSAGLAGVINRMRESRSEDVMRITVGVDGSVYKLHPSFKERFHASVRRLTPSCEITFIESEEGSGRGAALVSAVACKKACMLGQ
- testDescription: GK activation test
- conditionContext: test compound concentration needed to activate 50% of maximum activation ability; 4 mM 14C-labeled glucose, 2 mM ATP, room temperature, 20 minutes
pEC50: −log10 of the molar value.
valueKind: pEC50

# count of solved cases: 3
Q) # input compound: CC(C)(C)c1ccc(/C(=C\Cn2ccccc2=O)c2ccc(Cl)c(=O)[nH]2)cc1 ; wanted: its pEC50
A) 5.52 to 6.30

Q) Quick one: pEC50 for O=C1CC[C@H](CC(c2ccc(S(=O)(=O)C3CC3)c(Cl)c2)c2ccc(Cl)c(=O)[nH]2)N1 (single isomer, unassigned) [Example 4-305] ?
A) 5.00 to 5.52

Q) GET /values?readout=pEC50&item= CCN(CC)CCCSc1ccc(/C(=C\C2CCCC2)c2ccc(C)c(=O)[nH]2)cc1Cl
A) 6.30 to 8.00

Moving on to another compound below.
Q) Quick one: pEC50 for O=C1CC[C@H](/C=C(/c2ccc(C3CC3)c(=O)[nH]2)c2ccc(C(F)(F)F)cc2F)N1 ?
A) 6.30 to 8.00
